- Test Target: human full length PIK3CA wild-type (p110α/p85α) (Homo sapiens (Human), UniProt P42336)
- Sequence (P42336 whole entry): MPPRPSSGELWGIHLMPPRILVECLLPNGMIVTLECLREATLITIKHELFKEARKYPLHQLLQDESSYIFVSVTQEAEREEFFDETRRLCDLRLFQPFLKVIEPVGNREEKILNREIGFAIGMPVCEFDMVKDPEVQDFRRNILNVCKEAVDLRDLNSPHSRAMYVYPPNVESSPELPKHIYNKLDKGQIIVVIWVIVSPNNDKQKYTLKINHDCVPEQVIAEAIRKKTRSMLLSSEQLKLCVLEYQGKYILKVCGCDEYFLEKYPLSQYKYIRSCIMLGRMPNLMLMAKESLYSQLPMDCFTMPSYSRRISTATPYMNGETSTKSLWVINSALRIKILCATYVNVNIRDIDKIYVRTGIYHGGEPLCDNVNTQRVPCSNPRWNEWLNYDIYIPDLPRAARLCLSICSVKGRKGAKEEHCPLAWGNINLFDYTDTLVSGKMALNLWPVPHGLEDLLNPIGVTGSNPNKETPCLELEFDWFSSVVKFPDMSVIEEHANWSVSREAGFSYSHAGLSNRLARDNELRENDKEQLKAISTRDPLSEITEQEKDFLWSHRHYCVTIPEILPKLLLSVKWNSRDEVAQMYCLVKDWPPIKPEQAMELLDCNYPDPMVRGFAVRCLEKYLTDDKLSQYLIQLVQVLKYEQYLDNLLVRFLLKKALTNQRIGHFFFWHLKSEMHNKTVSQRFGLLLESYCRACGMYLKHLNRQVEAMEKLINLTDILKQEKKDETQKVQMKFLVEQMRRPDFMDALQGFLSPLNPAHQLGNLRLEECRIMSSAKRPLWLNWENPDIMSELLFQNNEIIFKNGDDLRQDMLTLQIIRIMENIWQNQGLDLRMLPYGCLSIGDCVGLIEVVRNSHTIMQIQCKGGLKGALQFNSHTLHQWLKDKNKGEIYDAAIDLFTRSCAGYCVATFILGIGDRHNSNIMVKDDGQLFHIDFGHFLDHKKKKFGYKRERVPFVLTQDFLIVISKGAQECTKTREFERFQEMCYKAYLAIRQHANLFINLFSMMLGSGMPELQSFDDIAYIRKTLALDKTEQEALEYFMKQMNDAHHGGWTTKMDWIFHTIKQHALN
- Sequence (P27986 whole entry partner): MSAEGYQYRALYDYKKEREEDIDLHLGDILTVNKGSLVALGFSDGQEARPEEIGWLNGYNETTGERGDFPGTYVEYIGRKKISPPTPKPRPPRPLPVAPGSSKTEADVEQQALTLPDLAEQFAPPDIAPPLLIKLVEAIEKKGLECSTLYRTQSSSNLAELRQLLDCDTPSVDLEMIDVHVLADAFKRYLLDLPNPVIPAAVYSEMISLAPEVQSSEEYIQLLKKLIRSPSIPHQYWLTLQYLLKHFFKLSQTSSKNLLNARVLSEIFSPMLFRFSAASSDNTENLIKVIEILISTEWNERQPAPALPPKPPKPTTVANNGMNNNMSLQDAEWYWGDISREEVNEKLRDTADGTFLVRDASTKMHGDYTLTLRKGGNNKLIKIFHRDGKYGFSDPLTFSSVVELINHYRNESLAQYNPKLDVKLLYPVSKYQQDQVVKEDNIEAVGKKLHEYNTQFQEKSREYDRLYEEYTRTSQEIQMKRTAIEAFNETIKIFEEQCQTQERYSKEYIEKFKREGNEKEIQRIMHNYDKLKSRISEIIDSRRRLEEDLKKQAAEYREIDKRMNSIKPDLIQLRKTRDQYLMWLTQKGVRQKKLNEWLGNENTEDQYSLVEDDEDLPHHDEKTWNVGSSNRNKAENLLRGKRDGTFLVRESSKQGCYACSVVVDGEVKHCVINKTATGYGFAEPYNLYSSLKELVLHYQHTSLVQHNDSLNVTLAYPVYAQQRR
- Test Name: PI3K-alpha kinase (PIK3CA) activity, wild-type, Transcreener ADP2 FI assay
- Protocol Conditions: PI3K-α (PIK3CA) biochemical
Recorded IC50 for the following molecules

> print(dat)
                                   molecule  measured.value
1  Cc1cc(C(C)Nc2ccccc2C(=O)O)c2oc(N3CCC(C)CC3)cc(=O)c2c1 (stereo not shown)         > 10 µM
2  Cc1cc(C(C)Nc2cccc(F)c2C(=O)O)c2oc(N3Cc4ccc(F)cc4C3)cc(=O)c2c1 (stereo not shown)         > 10 µM
3  Cc1cc(C(C)Nc2ccc(Cl)nc2C(=O)O)c2oc(N3CCC4(CC3)CC4)cc(=O)c2c1 (stereo not shown)        < 0.5 µM

Kindly review the next molecule as well.
stdin: Checklist item: IC50 tested on human full length PIK3CA wild-type (p110α/p85α) (Homo sapiens (Human), UniProt P42336), entry COC1CCN(c2cc(=O)c3cc(C)cc(C(C)Nc4ccccc4C(=O)O)c3o2)CC1 (stereo not shown) , value?
stdout: > 10 µM
